- Target: T1, mouse B7-H4 on the cell surface (mouse, UniProt Q7TSP5 25-257)
- T1 construct: full-length, on transfected HEK293T cells
- T1 sequence: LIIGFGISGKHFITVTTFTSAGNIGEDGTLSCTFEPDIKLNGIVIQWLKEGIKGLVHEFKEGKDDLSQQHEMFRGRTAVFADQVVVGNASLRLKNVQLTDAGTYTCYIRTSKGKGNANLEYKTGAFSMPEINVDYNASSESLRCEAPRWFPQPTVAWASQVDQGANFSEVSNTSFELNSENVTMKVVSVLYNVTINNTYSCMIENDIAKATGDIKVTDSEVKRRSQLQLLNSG
- Assay Overview: flow cytometry, transfected 293 cells
Endpoint: EC50 (nM)

INSERT INTO measurements (binder, endpoint, measurement) VALUES
  ('B7-H4 antibody 15489 (antibody, human IgG1, kappa, V domains shown, human IgG1/kappa) VH: QVQLQESGPGLVKPSETLSLTCTVSGGSISSYYWSWIRQPPGKGLEWIGYIYSSGSTNYNPSLKSRVTISVDTSKNQFSLKLSSVTAADTAVYYCARGSGQYAAPDYGMDVWGQGTTVTVSS VL: DIQMTQSPSTLSASVGDRVTITCRASQSISSWLAWYQQKPGKAPKLLIYKASSLESGVPSRFSGSGSGTEFTLTISSLQPDDFATYYCQQDNSFPFTFGGGTKVEIKR', 'EC50', 17.5),
  ('B7-H4 antibody 20501 (antibody, human IgG1, kappa, V domains shown, human IgG1/kappa) VH: QLQLQESGPGLVKPSETLSLTCTVSGGSIKSGSHYWGWIRQPPGKGLEWIGNIYYSGSTYYNPSLKSRVTISVDTSKNQFSLKLSSVTAADTAVYYCAREGSYPNWLDPWGQGTLVTVSS VL: EIVMTQSPATLSVSPGERATLSCRASQSVSSNLAWYQQKPGQAPRLLIYGASTRATGIPARFSGSGSGTEFTLTISSLQSEDFAVYYCQQYHSFPFTFGGGTKVEIKR', 'EC50', 4.67),
  ('B7-H4 antibody 20500 (antibody, human IgG1, kappa, V domains shown, human IgG1/kappa) VH: QLQLQESGPGLVKPSETLSLTCTVSGGSIKSGSHYWGWIRQPPGKGLEWIGNIYYSGSTYYNPSLRSRVTISVDTSKNQFSLKLSSVTAADTAVYYCAREGSYPNWFDPWGQGTLVTVSS VL: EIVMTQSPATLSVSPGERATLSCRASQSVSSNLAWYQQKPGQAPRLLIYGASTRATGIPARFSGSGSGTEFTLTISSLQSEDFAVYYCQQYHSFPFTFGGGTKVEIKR', 'EC50', 4);
